- TEST TARGET: ScBzz1-D2
- MEASUREMENT DESCRIPTION: SPOT peptide array binding signal intensity (averaged, normalized) (arbitrary units (background-subtracted, floor 0; scale differs between SH3 domains)); higher = stronger binding of the SH3 domain to the peptide
Give SPOT peptide array binding signal intensity for every item shown.
Form field (numeric): enter value without unit.

Task item: Dear colleague, please send me the reported SPOT peptide array binding signal intensity for LTRRFPFLFPFDTRM when you can.
Reply: 10

Task item: Provide one value: measured SPOT peptide array binding signal intensity of GRLRPKRIAPWHLIQ
Reply: 3

Task item: Dear colleague, please send me the reported SPOT peptide array binding signal intensity for NHSRSLFSLPGNQQS when you can.
Reply: 10.5

Task item: Give the reported value of SPOT peptide array binding signal intensity for this record: LEFRAILFIPKRAPF
Reply: 162

Task item: Determine from records and report SPOT peptide array binding signal intensity for AIPPPVPNRPGGTTN
Reply: 1.5

Task item: For RRRDFGAPANKRPRR , write its SPOT peptide array binding signal intensity.
Reply: 29
